# test details: KARI assay of purified S. exigua KARI and variants with NADPH (Examples 6-9)
# Format: biochemical
# condition details: cofactor NADPH
# Description: S. exigua KARI activity or activities of its variants were assayed kinetically by monitoring the decrease in NADPH or NADH concentration by measuring the change in absorbance at 340 nm. […] Michaelis-Menten constants of the cofactors were determined with varying concentrations of NADPH (200-12 μM final) or NADH (200-6 μM final).
recorded metric: U/mg NADPH (specific activity) (U/mg)
Just the number please, in U/mg, no unit attached.

Task: What value of U/mg NADPH (specific activity) has been reported for the following molecule? Se1_KARI^JB7-his6: S. exigua KARI variant S63Q (protein, UniProt D0WGK0 1-342, looked up, variant S63Q, His6 tag, S. exigua KARI variant S63Q) Ketol-acid reductoisomerase …: MSVKTKEKEMAVTILYEQDVDPKVIQGLKVGIIGYGSQGHAHALNLMDSGVDVRVGLREGSSQWKTAEEAGLKVTDMDTAAEEADVIMVLVPDEIQPKVYQEHIAAHLKAGNTLAFAHGFNIHYGYIVPPEDVNVIMCAPKGPGHIVRRQFTEGSGVPDLACVQQDATGNAWDIVLSYCWGVGGARSGIIKATFAEETEEDLFGEQAVLCGGLVELVKAGFETLTEAGYPPELAYFECYHEMKMIVDLMYESGIHFMNYSISNTAEYGEYYAGPKVINEQSREAMKEILKRIQDGSFAQEFVDDCNNGHKRLLEQREAINTHPIETTGAQIRSMFSWIKKED
Output: 0.6

Reference for the values: patent US20140295512A1
